The measurements presented in this section are drawn from ChEMBL document CHEMBL5233248.

Below, each entry is listed alongside its reported IC50.
tested on: HT-29; test: Anticancer activity against human HT-29 cells assessed as cell growth inhibition incubated for 3 days by MTT assay; format: functional, cell-based; conditions: HT-29, 72 h
I only need the number, in µM, no unit after it.

Sample answers from the record:
Lookup: Answer with the recorded IC50 for the compound listed here: OC[C@H]1O[C@@H](Oc2cc(O)cc(/C=C/c3ccc(O)cc3)c2)[C@H](O)[C@@H](O)[C@@H]1O
Found: 18

Lookup: Answer with the recorded IC50 for the compound listed here: O=S(=O)(O)Oc1cc(O)cc(/C=C/c2ccc(O)cc2)c1
Found: 115

Lookup: Answer with the recorded IC50 for the compound listed here: O=S(=O)(O)Oc1ccc(/C=C/c2cc(O)cc(OS(=O)(=O)O)c2)cc1
Found: 56

Lookup: Answer with the recorded IC50 for the compound listed here: OC[C@H]1O[C@@H](Oc2cc(/C=C/c3ccc(O)cc3)cc(O[C@@H]3O[C@H](CO)[C@@H](O)[C@H](O)[C@H]3O)c2)[C@H](O)[C@@H](O)[C@@H]1O
Found: 24

Lookup: Answer with the recorded IC50 for the compound listed here: COc1cc(/C=C/c2ccc(O[C@@H]3O[C@H](CO)[C@@H](O)[C@H](O)[C@H]3O)cc2)cc(O[C@@H]2O[C@H](CO)[C@@H](O)[C@H](O)[C@H]2O)c1
Found: 45

More entries:
Lookup: Answer with the recorded IC50 for the compound listed here: CCCCCCCC(=O)OC[C@H]1O[C@@H](Oc2cc(O)cc(/C=C/c3ccc(O)cc3)c2)[C@H](O)[C@@H](O)[C@@H]1O
Found: 39

Lookup: Answer with the recorded IC50 for the compound listed here: Oc1ccc(/C=C/c2cc(O)cc(O)c2)cc1
Found: 70
